Assay: Solubility comparison: saturated solutions in SGF, FaSSIF, FeSSIF and high purity water, concentration by HPLC
Conditions: simulated gastric fluid (SGF), pH 1.8, simulated gastric fluid, thermodynamic from solid
assay-readout: solubility at 24 h
Answers without a unit are incomplete; give the number and then its unit.

Prompt line: What does the record list as solubility at 24 h for COc1cc2nccc(Oc3ccc(NC(=O)NC4CC4)c(Cl)c3)c2cc1C(N)=O [Form M] ?
Response line: 690 µg/mL

====

Assay: Solubility comparison: saturated solutions in SGF, FaSSIF, FeSSIF and high purity water, concentration by HPLC
Details: fed state simulated intestinal fluid (FeSSIF), pH 5, fessif, thermodynamic from solid
assay-readout: solubility at 24 h (µg/mL)
The reply should contain only the number, in µg/mL.

Prompt line: Query: solubility at 24 h; subject: COc1cc2nccc(Oc3ccc(NC(=O)NC4CC4)c(Cl)c3)c2cc1C(N)=O [Form M]
Response line: 0.4
